Listing of recorded ratio of amounts bound vs CE115HA000 by entry.
# tested_target: T1, CD3ε homodimer protein (human, UniProt P07766 23-126, limits assumed, sulfo-tag or biotin label in some ECL assays)
# T1 construct: also called human CD3ε homodimer protein; CD3 (CD3ε)
# T1 sequence (P07766 23-126 limits assumed): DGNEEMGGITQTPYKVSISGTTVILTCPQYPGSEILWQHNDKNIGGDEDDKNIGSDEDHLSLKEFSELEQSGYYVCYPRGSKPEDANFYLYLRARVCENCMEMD
# method_description: SPR, CD3ε homodimer on chip;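 also: biacore SPR with antibody variants flowed as analyte over amine-coupled CD3ε homodimer on a CM chip, bound amount of each single-residue H chain variant over that of parent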
Just the number, please.

# binder, recorded_value
data = [
    ("CE115HA000 Y100Q (antibody, name in Kabat numbering, V domains shown) VH: QVQLVESGGGVVQPGRSLRLSCAASGFTFSNAWMHWVRQAPGKGLEWVAQIKAKSNNYATYYAESVKGRFTISRDDSKNSLYLQMNSLKTEDTAVYYCRYVHYGAQYGVDAWGQGTTVTVSS VL: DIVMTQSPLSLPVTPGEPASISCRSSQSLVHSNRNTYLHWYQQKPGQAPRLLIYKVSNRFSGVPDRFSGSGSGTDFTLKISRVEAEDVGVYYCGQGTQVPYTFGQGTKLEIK", 0.8),
]

**Query** Provide one value: measured ratio of amounts bound vs CE115HA000 of CE115HA000 D101Q (antibody, name in Kabat numbering, V domains shown) VH: QVQLVESGGGVVQPGRSLRLSCAASGFTFSNAWMHWVRQAPGKGLEWVAQIKAKSNNYATYYAESVKGRFTISRDDSKNSLYLQMNSLKTEDTAVYYCRYVHYGAYYGVQAWGQGTTVTVSS VL: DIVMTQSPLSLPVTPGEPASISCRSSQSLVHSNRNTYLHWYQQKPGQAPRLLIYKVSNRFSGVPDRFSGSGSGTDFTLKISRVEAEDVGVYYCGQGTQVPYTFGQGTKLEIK
**Result** 2.25

**Query** Fill in ratio of amounts bound vs CE115HA000 for record CE115HA000 Y58K (antibody, name in Kabat numbering, V domains shown) VH: QVQLVESGGGVVQPGRSLRLSCAASGFTFSNAWMHWVRQAPGKGLEWVAQIKAKSNNYATKYAESVKGRFTISRDDSKNSLYLQMNSLKTEDTAVYYCRYVHYGAYYGVDAWGQGTTVTVSS VL: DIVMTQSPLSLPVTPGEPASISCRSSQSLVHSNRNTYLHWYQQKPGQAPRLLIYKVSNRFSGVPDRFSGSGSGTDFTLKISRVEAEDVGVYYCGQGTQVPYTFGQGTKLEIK
**Result** 0.3

**Query** Please report the measured ratio of amounts bound vs CE115HA000 for CE115HA000 A99T (antibody, name in Kabat numbering, V domains shown) VH: QVQLVESGGGVVQPGRSLRLSCAASGFTFSNAWMHWVRQAPGKGLEWVAQIKAKSNNYATYYAESVKGRFTISRDDSKNSLYLQMNSLKTEDTAVYYCRYVHYGTYYGVDAWGQGTTVTVSS VL: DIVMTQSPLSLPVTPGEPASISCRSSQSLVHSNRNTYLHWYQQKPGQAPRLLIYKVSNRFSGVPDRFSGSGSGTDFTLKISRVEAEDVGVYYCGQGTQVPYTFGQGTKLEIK
**Result** 0.84

**Query** Let me know recorded ratio of amounts bound vs CE115HA000 for CE115HA000 W33A (antibody, name in Kabat numbering, V domains shown) VH: QVQLVESGGGVVQPGRSLRLSCAASGFTFSNAAMHWVRQAPGKGLEWVAQIKAKSNNYATYYAESVKGRFTISRDDSKNSLYLQMNSLKTEDTAVYYCRYVHYGAYYGVDAWGQGTTVTVSS VL: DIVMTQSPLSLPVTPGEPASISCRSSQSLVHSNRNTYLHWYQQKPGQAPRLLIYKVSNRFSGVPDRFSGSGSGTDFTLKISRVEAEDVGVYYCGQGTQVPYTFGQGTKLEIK , thanks.
**Result** 0.1
